# maps each entry to its TGI
system: DMS 273 small cell lung; assay: NCI tumour cell line growth inhibition, 48 h
recordedMetric: TGI (µM)

molecule=COc1cc(Cl)c2c3c(c(C(=O)c4ccccc4)oc13)CCC2 unitsofmeasure=µM relationsign=> recordednumber=100
molecule=CCN(CC)Cc1cc(Nc2c3ccccc3nc3c4ccccc4n(C)c23)ccc1O unitsofmeasure=µM relationsign== recordednumber=17.9
molecule="CN(C)CC1(Cc2ccccc2)CCC(Cc2ccccc2)C1=O (stereo not given)" unitsofmeasure=µM relationsign== recordednumber=29
molecule=Cc1nc2c(n1CCN(C)C)C(=O)c1ccccc1C2=O unitsofmeasure=µM relationsign== recordednumber=28.8
molecule=CC(=O)Oc1ccc(CO)cc1OC(C)=O unitsofmeasure=µM relationsign=> recordednumber=100
molecule="COC1CC(CC2CCC(C)C(C(C)C(=O)O)O2)OC2(OC(C)(C3CCC(C)(C4OC(C5OC(O)(CO)C(C)CC5C)CC4C)O3)CC2C)C1C (stereo not given)" unitsofmeasure=µM relationsign== recordednumber=10.4
molecule="CCc1cccc(C(C)CC)c1NC(=O)C(=O)C(CC(=O)Nc1ccc(Cl)c(Cl)c1)C(=O)OC (stereo not given)" unitsofmeasure=µM relationsign== recordednumber=55.9
molecule="CCCCCCCCCCCC(O)=C1C(=O)CC(O)CC1=O (stereo not given)" unitsofmeasure=µM relationsign=> recordednumber=100
molecule=N[C@@H]1CCCC[C@@H]1N.O=C([O-])CN(CP(=O)([O-])[O-])CP(=O)([O-])[O-].[Pt+2] unitsofmeasure=µM relationsign=> recordednumber=100
molecule="CCCCN(CCCC)C(=O)C(=O)C(C)C(=O)CC (stereo not given)" unitsofmeasure=µM relationsign=> recordednumber=100

* * *

system: HOP-62 NSCLC; assay: NCI tumour cell line growth inhibition, 48 h
# maps each entry to its GI50
recordedMetric: GI50

compound=[C-]#[N+][C@]12C(=O)[C@H](CCC1(C)C)C(C)(C)[C@H]1C(=O)N(C)c3cccc2c31 targetofassay="HOP-62 NSCLC" result="9.6 µM"
compound=Cc1cc(C)n(C(=O)c2nn(-c3ccc(Cl)cc3)cc2O)n1 targetofassay="HOP-62 NSCLC" result="5.21 µM"
compound=O=C(Nc1ccc(Cl)cc1)c1cc(S(=O)(=O)Nc2nnc(-c3ccccc3)c(-c3ccccc3)n2)c(SCc2ccccc2)cc1Cl targetofassay="HOP-62 NSCLC" result="26.6 µM"
compound=COc1cc(NCc2ccccc2O)c2ncccc2c1 targetofassay="HOP-62 NSCLC" result="19.7 µM"
compound="O=C(O)c1cc(Cc2ccc(O)c(C(=O)O)c2)ccc1O (tested in a mixture with another compound)" targetofassay="HOP-62 NSCLC" result="10.9 µM"
compound=COc1cc(-c2cc(/C=C3\C(=O)Nc4ccccc43)[nH]n2)cc(OC)c1OC targetofassay="HOP-62 NSCLC" result="3.2 µM"
compound=N[C@@H]1CCCC[C@@H]1N.O=C([O-])CN(CP(=O)([O-])[O-])CP(=O)([O-])[O-].[Pt+2] targetofassay="HOP-62 NSCLC" result="> 100 µM"
compound=CCCCCCNc1nc(N2CCOCC2)c2[nH]c(NCCCCCC)nc2n1 targetofassay="HOP-62 NSCLC" result="1.67 µM"
compound=O=C1c2ccn(CCCCN3CCCCC3)c2C(=O)c2c1c(O)c1ccccc1c2O targetofassay="HOP-62 NSCLC" result="13.4 µM"
